These measurements were taken from patent US20080267974A1.

Quick reference: Affinity of the listed items.
Target: tumor necrosis factor alpha (TNFα) (human, UniProt P01375 77-233)
Sequence (P01375 77-233 limits assumed): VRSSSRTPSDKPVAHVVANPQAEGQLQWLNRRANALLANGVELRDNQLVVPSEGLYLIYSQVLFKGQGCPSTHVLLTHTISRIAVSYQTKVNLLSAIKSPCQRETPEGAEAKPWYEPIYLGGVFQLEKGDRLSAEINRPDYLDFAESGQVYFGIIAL
Experiment: affinity by IC50 ELISA (so named in paragraph 380)

binder: MAb 1850 (antibody, V domains shown, IgG1/kappa, CHO; also called H1727/L332) VH: EVQLLESGGGLIQPGGSLRLSCAASGFTVGNNYMSWVRQAPGKGLEWVSVIYSAGSTYYADSVKGRFIISRDNSKDTVYLQMNSLRVDDTAVYYCARNYYGSTHDYWGQGTLVTVSS VL: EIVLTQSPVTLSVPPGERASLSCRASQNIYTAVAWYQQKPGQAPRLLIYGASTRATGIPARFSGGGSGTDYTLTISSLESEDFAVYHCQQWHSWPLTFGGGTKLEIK
Affinity / nM: 0.59
//
binder: MAb 1852 (antibody, V domains shown, IgG1/kappa, CHO; also called H1729/L332) VH: EVQLLESGGGLIQPGGSLRLSCAASGFTVGNNYMSWVRQAPGKGLEWVSVIYSAGSTYYADSVKGRFIISRDNSKDTVYLQMNSLRVDDTAVYYCARNYYGSTLDYWGQGTLVTVSS VL: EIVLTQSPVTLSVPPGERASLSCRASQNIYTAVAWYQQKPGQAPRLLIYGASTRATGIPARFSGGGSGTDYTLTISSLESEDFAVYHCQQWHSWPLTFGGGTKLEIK
Affinity / nM: 0.41
//
binder: MAb 1851 (antibody, V domains shown, IgG1/kappa, CHO; also called H1728/L332) VH: EVQLLESGGGLIQPGGSLRLSCAASGFTVGNNYMSWVRQAPGKGLEWVSVIYSAGSTYYADSVKGRFIISRDNSKDTVYLQMNSLRVDDTAVYYCARNYYGSTFDYWGQGTLVTVSS VL: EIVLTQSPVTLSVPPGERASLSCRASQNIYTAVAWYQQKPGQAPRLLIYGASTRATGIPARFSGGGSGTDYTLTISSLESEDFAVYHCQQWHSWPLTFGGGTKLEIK
Affinity / nM: 0.26
//
binder: MAb 1874 (antibody, V domains shown, IgG1/kappa, CHO; also called H1725/L332) VH: EVQLLESGGGLIQPGGSLRLSCAASGFTVGNNYMSWVRQAPGKGLEWVSVIYSAGSTYYADSVKGRFIISRDNSKDTVYLQMNSLRVDDTAVYYCARNYYGSTMDYWGQGTLVTVSS VL: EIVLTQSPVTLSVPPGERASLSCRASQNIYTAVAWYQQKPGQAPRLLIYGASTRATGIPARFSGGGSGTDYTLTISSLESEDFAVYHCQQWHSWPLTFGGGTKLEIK
Affinity / nM: 0.38
